- system: T1, human CDH6 on cells (human, UniProt P55285 54-790)
- T1 sequence: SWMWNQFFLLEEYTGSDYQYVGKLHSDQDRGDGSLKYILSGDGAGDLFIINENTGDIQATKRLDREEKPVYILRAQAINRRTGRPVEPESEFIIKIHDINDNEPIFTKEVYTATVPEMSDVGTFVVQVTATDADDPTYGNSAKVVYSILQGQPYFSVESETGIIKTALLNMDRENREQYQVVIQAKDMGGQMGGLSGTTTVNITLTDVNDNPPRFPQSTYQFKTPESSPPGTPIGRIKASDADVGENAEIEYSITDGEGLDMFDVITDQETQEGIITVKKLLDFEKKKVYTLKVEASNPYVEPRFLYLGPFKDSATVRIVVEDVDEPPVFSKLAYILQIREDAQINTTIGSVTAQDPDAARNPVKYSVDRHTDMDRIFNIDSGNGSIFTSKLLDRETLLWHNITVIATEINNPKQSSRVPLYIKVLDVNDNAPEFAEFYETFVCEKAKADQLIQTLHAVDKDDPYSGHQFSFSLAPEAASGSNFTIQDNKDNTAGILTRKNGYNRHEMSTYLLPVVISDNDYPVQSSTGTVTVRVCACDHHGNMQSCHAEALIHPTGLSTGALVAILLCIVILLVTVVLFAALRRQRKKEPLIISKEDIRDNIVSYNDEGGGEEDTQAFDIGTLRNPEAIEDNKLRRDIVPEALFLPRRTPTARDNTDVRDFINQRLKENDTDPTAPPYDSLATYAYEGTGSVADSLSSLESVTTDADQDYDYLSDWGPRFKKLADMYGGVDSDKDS
- method_summary: cell-based or functional assay
value_type: percent inhibition at 1.22 nM ADC, SNU8 cells

# binder, recorded_measurement
measured = [
    ("NOV0692-SMCC-DM1 (antibody, human IgG1, lambda, V domains shown, SMCC-DM1 on primary amines, sites not stated) VH: QVQLVESGGGLVKPGGSLRLSCAASGFTFSRYWMDWVRQAPGKGLEWVGRIKSKANGGITDYAAPVKGRFTISRDDSKNTLYLQMNSLKTEDTAVYYCARGMTFLGIWGQGTLVTVSS VL: DIELTQPPSVSVSPGQTASITCSGDSIGSKYAQWYQQKPGQAPVLVIYYNSERPSGIPERFSGSNSGNTATLTISGTQAEDEADYYCQSWDGQSTIRVFGGGTKLTVLG", "15.7%"),
    ("NOV0670-SMCC-DM1 (antibody, human IgG1, lambda, V domains shown, SMCC-DM1 on primary amines, sites not stated) VH: QVQLVQSGAEVKKPGSSVKVSCKASGGTFSSYAISWVRQAPGQGLEWMGGIIPIFGTANYAQKFQGRVTITADESTSTAYMELSSLRSEDTAVYYCARKFPGRGPFAYWGQGTLVTVSS VL: DIVLTQPPSVSGAPGQRVTISCSGSSSNIGSQYVYWYQQLPGTAPKLLIYYNSERPSGMPDRFSGSKSGTSASLAITGLQAEDEADYYCQTWDASSQSFVFGGGTKLTVLG", "-15.6%"),
    ("NOV0718-SMCC-DM1 (antibody, human IgG1, lambda, V domains shown, SMCC-DM1 on primary amines, sites not stated) VH: QVQLVESGGGLVKPGGSLRLSCAASGFTFNSYALHWVRQAPGKGLEWVGRIKSKTNGGTTDYAAPVKGRFTISRDDSKNTLYLQMNSLKTEDTAVYYCARVDATYSYSGYYYPMDYWGQGTLVTVSS VL: DIELTQPPSVSVSPGQTASITCSGDKIPTYTVHWYQQKPGQAPVLVIYDDNKRPSGIPERFSGSNSGNTATLTISGTQAEDEADYYCQSTASGTVVFGGGTKLTVLG", "3.35%"),
    ("NOV0672-SMCC-DM1 (antibody, human IgG1, lambda, V domains shown, SMCC-DM1 on primary amines, sites not stated) VH: QVQLLESGGGLVQPGGSLRLSCAASGFTFNTYGIHWVRQAPGKGLEWVSYIHYSGSSTYYADSVKGRFTISRDNSKNTLYLQMNSLRAEDTAVYYCARHAYGYMDFWGQGTLVTVSS VL: DIALTQPASVSGSPGQSITISCTGTSSDVGAYNYVSWYQQHPGKAPKLMIYGVSKRPSGVSNRFSGSKSGNTASLTISGLQAEDEADYYCQSYDHLLHVVFGGGTKLTVLG", "-10.9%"),
    ("NOV0691-SMCC-DM1 (antibody, human IgG1, lambda, V domains shown, SMCC-DM1 on primary amines, sites not stated) VH: QVQLVESGGGLVKPGGSLRLSCAASGFTFSSYALNWVRQAPGKGLEWVGRIKSKTYGGSTDYAAPVKGRFTISRDDSKNTLYLQMNSLKTEDTAVYYCARDRGGYVGFDSWGQGTLVTVSS VL: DIALTQPASVSGSPGQSITISCTGTSSDVGRYNFVSWYQQHPGKAPKLMIYRVSNRPSGVSNRFSGSKSGNTASLTISGLQAEDEADYYCQSWTTYSNVVFGGGTKLTVLG", "-2.56%"),
]
